# experimentDescription: NCI Yeast Anticancer Drug Screen. Data for the rad50 strain (AID 155)
# testSettings: S. cerevisiae rad50 strain growth inhibition; at 5.0 µM (retest, dose inferred, filed as 0.5)
Compounds without any hit were thinned out: in the full panel of roughly 79,000, 15% have a hit. Activity calls are given as the source filed them. Rule as the data show it: active = growth inhibition above about 70%; inactive = the rest.
Mark one answer only. Choices: active, inactive

Answered examples (5):
OC(C/C(=N\N=C(/CC(O)(C(F)(F)F)C(F)(F)F)c1ccccc1)c1ccccc1)(C(F)(F)F)C(F)(F)F    inactive
COc1ccc(N=Cc2ccccc2O)cc1    inactive
O=[N+]([O-])c1ccc(NS(=O)(=O)c2ccc(Cl)c(Cl)c2Cl)c([N+](=O)[O-])c1    inactive
N=C(N)c1ccc(SCCCCCSc2ccc(C(=N)N)cc2)cc1    inactive
O=C(C=P(c1ccccc1)(c1ccccc1)c1ccccc1)c1ccc(Cl)cc1    inactive

Consider now this further molecule.
Lab log entry: O=C(CCc1ccccc1)OCC1OC(OC(=O)CCc2ccccc2)C(OC(=O)CCc2ccccc2)C(OC(=O)CCc2ccccc2)C1OC(=O)CCc1ccccc1 (configuration not stated) — outcome as called in the assay? inactive
